Known IC50 of a selection of compounds
molecular target: human serotonin 5-HT2A receptor (Homo sapiens); construct: expressed in transfected cells; host or cells: CHO-K1; assay: Radioligand binding assay, human 5-HT2A receptors ([3H]Ketanserin); conditions: human 5-HT2a; Example 16 table; read-out: IC50 (nM) 5-HT2a
Sequence (P28223 whole entry): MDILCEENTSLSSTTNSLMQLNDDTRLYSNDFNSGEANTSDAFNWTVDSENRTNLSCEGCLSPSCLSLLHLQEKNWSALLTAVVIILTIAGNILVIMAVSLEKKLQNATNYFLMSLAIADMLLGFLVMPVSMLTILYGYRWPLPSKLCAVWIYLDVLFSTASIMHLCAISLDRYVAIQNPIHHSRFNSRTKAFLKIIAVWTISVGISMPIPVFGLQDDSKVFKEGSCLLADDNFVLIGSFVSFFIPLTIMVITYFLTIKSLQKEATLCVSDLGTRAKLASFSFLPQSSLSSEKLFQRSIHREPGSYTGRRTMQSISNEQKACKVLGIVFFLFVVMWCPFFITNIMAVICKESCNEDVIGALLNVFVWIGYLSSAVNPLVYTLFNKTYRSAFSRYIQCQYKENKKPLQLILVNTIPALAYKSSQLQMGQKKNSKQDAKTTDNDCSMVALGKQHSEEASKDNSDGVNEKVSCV
property-measured: IC50

{"smiles-repr": "Clc1cccc(C2(c3csc(C4CCNCC4)n3)CCOCC2)c1", "result": "> 1000 nM"}
{"smiles-repr": "CN1CCN(c2nc(C3(c4csc5ccc(Cl)cc45)CCOCC3)cs2)CC1", "result": "> 1000 nM"}
{"smiles-repr": "CN1CCN(c2nc(Cc3csc4ccc(Cl)cc34)cs2)CC1", "result": "< 1000 nM"}
{"smiles-repr": "Clc1ccc(C2(c3nc(N4CCNCC4)sc3Cl)CCOCC2)cc1", "result": "< 1000 nM"}
{"smiles-repr": "Clc1ccc(C2(c3csc(NCCN4CCOCC4)n3)CCC2)cc1", "result": "> 1000 nM"}
